Measured pKd by item
Target: T1, recombinant FAP protein (BioLegend), biotinylated (Homo sapiens (Human), UniProt Q12884 26-760, Biotinylated (sites not given) for loading on streptavidin sensors. Any vendor tag is not stated in the passages shown.)
T1 construct: Loaded on streptavidin sensors for BLI; also called biotinylated FAP
T1 sequence: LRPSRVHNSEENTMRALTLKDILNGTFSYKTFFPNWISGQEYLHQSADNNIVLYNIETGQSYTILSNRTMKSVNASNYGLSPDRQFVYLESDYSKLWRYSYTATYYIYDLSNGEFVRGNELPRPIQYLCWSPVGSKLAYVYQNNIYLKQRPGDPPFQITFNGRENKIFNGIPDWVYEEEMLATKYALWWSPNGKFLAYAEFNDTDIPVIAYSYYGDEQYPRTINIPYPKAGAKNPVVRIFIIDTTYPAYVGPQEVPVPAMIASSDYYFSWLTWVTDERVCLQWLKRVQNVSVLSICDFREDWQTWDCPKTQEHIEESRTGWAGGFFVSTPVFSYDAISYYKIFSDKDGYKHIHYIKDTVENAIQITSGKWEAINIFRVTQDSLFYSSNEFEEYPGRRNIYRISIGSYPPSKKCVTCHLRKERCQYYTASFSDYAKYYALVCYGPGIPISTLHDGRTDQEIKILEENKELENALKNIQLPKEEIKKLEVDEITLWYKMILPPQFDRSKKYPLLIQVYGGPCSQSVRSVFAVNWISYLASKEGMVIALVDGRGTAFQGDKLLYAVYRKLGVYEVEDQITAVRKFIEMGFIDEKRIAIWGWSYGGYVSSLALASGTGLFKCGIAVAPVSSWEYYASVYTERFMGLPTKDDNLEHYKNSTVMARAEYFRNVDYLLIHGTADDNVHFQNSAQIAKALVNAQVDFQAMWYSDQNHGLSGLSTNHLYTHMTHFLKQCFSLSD
Assay: BLI (Octet RED96), biotinylated FAP on streptavidin sensors
Lab note — pKd values are minus log10 of concentrations in M.

Before answering, review these 5 worked examples.
Binder: P-1927: 3PE42_M31F (VHH, also called pET28 PelB-3PE42_M42F) VHH: QVQLQESGGGLVQPGESLRLSCAVSGSTSSFNAMAWYRQAPGKRRELVAGISGGGATNYPDSVKGRFTISRDNAKNTVYLQMSSLKPEDTAVYYCNLWPPRASPGGGVYWGQGTQVTVSS
Property Name: pKd
Assay Value: 8.93
//
Binder: P-1938: 3PE42_M31T (VHH, also called pET28 PelB-3PE42_M42T) VHH: QVQLQESGGGLVQPGESLRLSCAVSGSTSSTNAMAWYRQAPGKRRELVAGISGGGATNYPDSVKGRFTISRDNAKNTVYLQMSSLKPEDTAVYYCNLWPPRASPGGGVYWGQGTQVTVSS
Property Name: pKd
Assay Value: 8.94
//
Binder: P-1906: 2PE14_N32A (VHH, also called pET28 PelB-2PE14_N32A) VHH: QVQLQESGGGLVQPGGSLRLSCAASGSTFSIAAVAWYRQAPGKRRELVAGISGGGVTNYPDSVKGRFTISRDNAKNTVYLQMSSLKPEDTAVYYCNLWPPRASPGGRVYWGQGTQVTVSS
Property Name: pKd
Assay Value: 8.45
//
Binder: P-1907: 2PE14_N32D (VHH, also called pET28 PelB-2PE14_N32D) VHH: QVQLQESGGGLVQPGGSLRLSCAASGSTFSIDAVAWYRQAPGKRRELVAGISGGGVTNYPDSVKGRFTISRDNAKNTVYLQMSSLKPEDTAVYYCNLWPPRASPGGRVYWGQGTQVTVSS
Property Name: pKd
Assay Value: 7.97
//
Binder: P-1909: 2PE14_N32F (VHH, also called pET28 PelB-2PE14_N32F) VHH: QVQLQESGGGLVQPGGSLRLSCAASGSTFSIFAVAWYRQAPGKRRELVAGISGGGVTNYPDSVKGRFTISRDNAKNTVYLQMSSLKPEDTAVYYCNLWPPRASPGGRVYWGQGTQVTVSS
Property Name: pKd
Assay Value: 9.33

Task: Please give measured pKd of the following entry: P-1912: 2PE14_N32I (VHH, also called pET28 PelB-2PE14_N32I) VHH: QVQLQESGGGLVQPGGSLRLSCAASGSTFSIIAVAWYRQAPGKRRELVAGISGGGVTNYPDSVKGRFTISRDNAKNTVYLQMSSLKPEDTAVYYCNLWPPRASPGGRVYWGQGTQVTVSS
Output: 7.77

Task: Please report pKd for the following binder: P-1925: 3PE42_M31D (VHH, also called pET28 PelB-3PE42_M42D) VHH: QVQLQESGGGLVQPGESLRLSCAVSGSTSSDNAMAWYRQAPGKRRELVAGISGGGATNYPDSVKGRFTISRDNAKNTVYLQMSSLKPEDTAVYYCNLWPPRASPGGGVYWGQGTQVTVSS
Output: 9.78

Task: Write down pKd measured for item P-1935: 3PE42_M31Q (VHH, also called pET28 PelB-3PE42_M42Q) VHH: QVQLQESGGGLVQPGESLRLSCAVSGSTSSQNAMAWYRQAPGKRRELVAGISGGGATNYPDSVKGRFTISRDNAKNTVYLQMSSLKPEDTAVYYCNLWPPRASPGGGVYWGQGTQVTVSS
Output: 9.67
